# Tested on: SW-620 colon
# Assay: NCI tumour cell line growth inhibition, 48 h
List of TGI values.
Readout type: TGI

INSERT INTO assay_data (compound, study_target, reported_result) VALUES
  ('CCN(C(C)=O)c1cnc(/C=N/NC(N)=S)c2ccccc12', 'SW-620 colon', '> 100 µM'),
  ('NC1CC(Cl)c2c(Cl)sc(Cl)c21 (stereo not drawn)', 'SW-620 colon', '> 100 µM'),
  ('FC(F)(F)c1ccc(C#Cc2ccccc2C#Cc2ccccc2)cc1', 'SW-620 colon', '> 100 µM'),
  ('CC1=C(C(=O)N(C(C)C)C(C)C)CC(C(=O)N(C(C)C)C(C)C)=C(C)N1', 'SW-620 colon', '> 100 µM'),
  ('O=C(NNCc1ccco1)c1cc2ccccc2[nH]1', 'SW-620 colon', '> 100 µM'),
  ('C[n+]1c2ccccc2c(NC(CS)C(=O)O)c2ccccc21 (stereo not drawn)', 'SW-620 colon', '> 100 µM'),
  ('OC1[C@H](O)CN(OCc2ccccc2)C[C@@H]1O (stereo partly drawn)', 'SW-620 colon', '> 100 µM'),
  ('O=C1C2C=CC(C2)C(c2ccc(O)cc2)N1O (stereo not drawn)', 'SW-620 colon', '> 100 µM'),
  ('Cc1ccc([N+](=O)[O-])cc1NC(=O)c1cccc([N+](=O)[O-])c1O', 'SW-620 colon', '> 100 µM'),
  ('OC(c1cc(-c2ccc(Cl)cc2)nc2ccccc12)C1CCCCN1 (stereo not drawn)', 'SW-620 colon', '3.69 µM'),
  ('CN(C)CCCN1c2ccccc2C(C)(C)c2ccccc21', 'SW-620 colon', '52.4 µM'),
  ('CCC[CH2][Sn]([CH2]CCC)([CH2]CCC)[O]C(=O)c1ccc(Cl)cc1Cl', 'SW-620 colon', '0.335 µM'),
  ('CC(=O)c1cccc(Nc2nc3ccc(Cl)cc3c3[nH]c4ccccc4c23)c1', 'SW-620 colon', '> 85.6 µM');
